assay: chemical genetic growth profiling, strain panel (AID 1159580);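 also: tested at 20 µM; growth read once vehicle control cultures reached saturation at 30 °C; lower values mean less growth of the strain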; settings: S. cerevisiae deletion strains, growth OD, locus YDR069C, strain doa4, active compounds read low
Among all 5,500 compounds or so, about 2,000 (36%) were called active. Another 18% or so got no clear call; they are omitted. The list shows a part of the results.
Kindly apply the following: satisfied if normalized growth is less than 1, not satisfied in every other case.

| Molecule | Classification |
| --- | --- |
| O=C1CC[C@]23C=CC(=O)NCCCCNCCCNC(=O)/C=C/c4ccc(c2c4)O[C@@H]3C1 | not satisfied |
| CC[N+]1(C)CCCC(OC(=O)C(O)(c2ccccc2)c2ccccc2)C1 (stereo not given) | not satisfied |
| CCC(CCC(C)[C@H]1CCC2C3CC=C4C[C@@H](O)CC[C@]4(C)C3CC[C@@]21C)C(C)C (stereo not given in full) | not satisfied |
| CC(=O)[C@H]1CCC2C3CC=C4C[C@@H](O)CC[C@]4(C)C3CC[C@@]21C (stereo not given in full) | satisfied |
